Attribution: ChEMBL document CHEMBL2218924

This section presents molecules with their documented residual activity values.
Target: Serine/threonine-protein kinase Nek7 (Homo sapiens) (UniProt Q8TDX7)
Sequence (Q8TDX7 whole entry, looked up): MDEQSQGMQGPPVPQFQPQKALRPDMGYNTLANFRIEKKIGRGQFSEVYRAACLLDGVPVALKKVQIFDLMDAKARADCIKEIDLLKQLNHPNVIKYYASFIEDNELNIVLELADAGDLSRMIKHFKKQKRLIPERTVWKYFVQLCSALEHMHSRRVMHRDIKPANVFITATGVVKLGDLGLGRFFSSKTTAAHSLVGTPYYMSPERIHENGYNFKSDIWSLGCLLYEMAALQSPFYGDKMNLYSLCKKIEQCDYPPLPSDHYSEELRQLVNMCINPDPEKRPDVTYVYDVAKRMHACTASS
Settings: at 1 µM
Description: Millipore: Percentage of residual kinase activity of NEK7 at 1uM relative to control. Control inhibitor: Phosphoric acid* at 0.3uM. Buffer: 8 mM MOPS pH 7.0, 0.2 mM EDTA
MEASURE NAME: residual activity (%)

{"MOLECULE": "CC(C)(C)c1cc(C=C(C#N)C#N)cc(Br)c1O", "OBSERVED MEASUREMENT": 114}
{"MOLECULE": "c1cc(-c2cnn3cc(-c4ccc(OCCN5CCCCC5)cc4)cnc23)ccn1", "OBSERVED MEASUREMENT": 106}
{"MOLECULE": "COC(=O)[C@@]1(O)C[C@H]2O[C@]1(C)n1c3ccccc3c3c4c(c5c6ccccc6n2c5c31)C(=O)NC4", "OBSERVED MEASUREMENT": 103}
{"MOLECULE": "O=C1c2ccccc2-c2nc3nnnn3nc21", "OBSERVED MEASUREMENT": 116}
{"MOLECULE": "C[S+]([O-])c1ccc(-c2nc(-c3ccc(F)cc3)c(-c3ccncc3)[nH]2)cc1 (configuration not stated)", "OBSERVED MEASUREMENT": 101}
{"MOLECULE": "CC(C)[C@H](CO)Nc1nc(Nc2cccc(Cl)c2)c2ncn(C(C)C)c2n1", "OBSERVED MEASUREMENT": 102}
{"MOLECULE": "O=C1Nc2ccc3ncsc3c2/C1=C/c1c[nH]cn1", "OBSERVED MEASUREMENT": 84}

====

This section presents compounds with their documented residual activity values.
Target: Serine/threonine-protein kinase MRCK alpha (Homo sapiens) (UniProt Q5VT25)
Sequence (Q5VT25 whole entry): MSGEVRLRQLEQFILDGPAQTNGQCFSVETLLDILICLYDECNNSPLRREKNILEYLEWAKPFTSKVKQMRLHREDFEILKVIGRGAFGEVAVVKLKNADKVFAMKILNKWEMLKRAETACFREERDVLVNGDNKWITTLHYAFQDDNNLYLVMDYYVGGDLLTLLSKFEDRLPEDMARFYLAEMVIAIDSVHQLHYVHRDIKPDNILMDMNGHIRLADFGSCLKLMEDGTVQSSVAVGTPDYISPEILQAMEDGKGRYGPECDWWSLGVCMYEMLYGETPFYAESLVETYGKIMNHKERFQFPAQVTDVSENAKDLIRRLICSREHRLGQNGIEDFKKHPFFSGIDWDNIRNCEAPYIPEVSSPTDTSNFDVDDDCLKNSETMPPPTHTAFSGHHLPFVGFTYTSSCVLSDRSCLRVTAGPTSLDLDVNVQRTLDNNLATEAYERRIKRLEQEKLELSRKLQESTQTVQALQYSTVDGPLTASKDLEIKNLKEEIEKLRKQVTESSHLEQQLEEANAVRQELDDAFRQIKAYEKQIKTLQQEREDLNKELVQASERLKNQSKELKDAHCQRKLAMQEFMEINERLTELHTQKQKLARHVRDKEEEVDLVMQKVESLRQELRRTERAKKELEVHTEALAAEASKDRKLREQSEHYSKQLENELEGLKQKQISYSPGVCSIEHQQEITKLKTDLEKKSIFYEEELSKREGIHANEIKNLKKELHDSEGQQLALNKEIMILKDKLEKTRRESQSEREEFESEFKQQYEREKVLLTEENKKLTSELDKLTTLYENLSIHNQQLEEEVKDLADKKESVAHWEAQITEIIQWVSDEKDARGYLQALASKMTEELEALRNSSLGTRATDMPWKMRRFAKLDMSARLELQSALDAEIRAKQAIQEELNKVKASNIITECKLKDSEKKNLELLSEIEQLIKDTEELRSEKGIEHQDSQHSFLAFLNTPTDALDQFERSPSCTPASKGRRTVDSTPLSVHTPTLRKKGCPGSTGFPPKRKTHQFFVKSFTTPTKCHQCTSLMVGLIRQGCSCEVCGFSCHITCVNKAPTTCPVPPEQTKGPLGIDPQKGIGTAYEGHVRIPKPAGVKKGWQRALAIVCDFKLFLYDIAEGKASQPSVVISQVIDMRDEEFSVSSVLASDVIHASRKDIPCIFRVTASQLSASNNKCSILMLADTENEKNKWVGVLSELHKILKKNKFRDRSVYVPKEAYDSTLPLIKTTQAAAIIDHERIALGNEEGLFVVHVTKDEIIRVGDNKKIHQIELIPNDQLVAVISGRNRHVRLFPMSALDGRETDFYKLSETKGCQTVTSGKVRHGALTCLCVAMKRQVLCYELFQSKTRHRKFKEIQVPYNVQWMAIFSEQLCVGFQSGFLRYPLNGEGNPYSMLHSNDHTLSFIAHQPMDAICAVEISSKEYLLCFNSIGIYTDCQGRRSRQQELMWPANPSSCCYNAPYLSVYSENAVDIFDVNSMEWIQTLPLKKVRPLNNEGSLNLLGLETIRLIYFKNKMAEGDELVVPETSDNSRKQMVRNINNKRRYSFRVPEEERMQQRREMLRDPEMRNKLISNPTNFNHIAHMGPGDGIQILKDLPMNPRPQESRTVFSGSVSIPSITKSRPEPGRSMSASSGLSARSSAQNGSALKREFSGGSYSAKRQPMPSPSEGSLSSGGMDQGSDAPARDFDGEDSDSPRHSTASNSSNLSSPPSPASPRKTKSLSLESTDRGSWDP
Conditions: at 10 µM
MEASURE NAME: residual activity (%)

{"COMPOUND": "CCc1nc(-c2ccc(OC)cc2)[nH]c1-c1ccncc1", "MEASURE NAME": "residual activity", "OBSERVED MEASUREMENT": 114}
{"COMPOUND": "COc1ccc2c(c[n+](C)c3c4cc5c(cc4ccc23)OCO5)c1OC", "MEASURE NAME": "residual activity", "OBSERVED MEASUREMENT": 84}
{"COMPOUND": "c1cc(-c2cnn3cc(-c4ccc(OCCN5CCCCC5)cc4)cnc23)ccn1", "MEASURE NAME": "residual activity", "OBSERVED MEASUREMENT": 118}
{"COMPOUND": "C[S+]([O-])c1ccc(-c2nc(-c3ccc(F)cc3)c(-c3ccncc3)[nH]2)cc1 (stereo unspecified)", "MEASURE NAME": "residual activity", "OBSERVED MEASUREMENT": 119}
{"COMPOUND": "O=c1[nH]c2ccccc2n1C1CCN(Cc2ccc(-c3nc4cc5[nH]cnc5cc4nc3-c3ccccc3)cc2)CC1", "MEASURE NAME": "residual activity", "OBSERVED MEASUREMENT": 128}
{"COMPOUND": "COC(=O)[C@@]1(O)C[C@H]2O[C@]1(C)n1c3ccccc3c3c4c(c5c6ccccc6n2c5c31)C(=O)NC4", "MEASURE NAME": "residual activity", "OBSERVED MEASUREMENT": 23}

====

This section presents compounds with their documented residual activity values.
Biological target: Protein-tyrosine kinase 6 (Homo sapiens)
Conditions: at 1 µM
MEASURE NAME: residual activity (%)

{"COMPOUND": "CC(C)(C)c1cc(C=C(C#N)C#N)cc(Br)c1O", "MEASURE NAME": "residual activity", "UOM": "%", "OBSERVED MEASUREMENT": 109}
{"COMPOUND": "COc1ccc2c(c[n+](C)c3c4cc5c(cc4ccc23)OCO5)c1OC", "MEASURE NAME": "residual activity", "UOM": "%", "OBSERVED MEASUREMENT": 110}
{"COMPOUND": "C[S+]([O-])c1ccc(-c2nc(-c3ccc(F)cc3)c(-c3ccncc3)[nH]2)cc1 (configuration not stated)", "MEASURE NAME": "residual activity", "UOM": "%", "OBSERVED MEASUREMENT": 59}
{"COMPOUND": "CCc1nc(-c2ccc(OC)cc2)[nH]c1-c1ccncc1", "MEASURE NAME": "residual activity", "UOM": "%", "OBSERVED MEASUREMENT": 110}
{"COMPOUND": "COc1cc(OC)c(/C=C2\\C(=O)Nc3ccccc32)c(OC)c1", "MEASURE NAME": "residual activity", "UOM": "%", "OBSERVED MEASUREMENT": 104}
{"COMPOUND": "COC(=O)[C@@]1(O)C[C@H]2O[C@]1(C)n1c3ccccc3c3c4c(c5c6ccccc6n2c5c31)C(=O)NC4", "MEASURE NAME": "residual activity", "UOM": "%", "OBSERVED MEASUREMENT": 19}
{"COMPOUND": "CCn1cnc2c(Nc3cccc(Cl)c3)nc(N[C@@H]3CCCC[C@@H]3N)nc21", "MEASURE NAME": "residual activity", "UOM": "%", "OBSERVED MEASUREMENT": 94}
